Source listed as patent US6423376B1.

Test: Dynamic surface tension of aqueous solutions, maximum bubble pressure method
Format: physicochemical
Details: lowest surface tension in water; 0.1 b/s
value.kind: limiting γ (0.1 b/s) (Dyne/cm)

Known results for compounds:
[[record]]
compound = "CCCCCOC(=O)C(O)C(O)C(=O)OCCCCC (racemic) [Example 5, Dipentyl-DL-tartrate]"
reported = 35.9

[[record]]
compound = "CC(C)CCOC(=O)C(O)C(O)C(=O)OCCC(C)C (racemic) [Example 6, Diisoamyl-DL-tartrate]"
reported = 34.9

[[record]]
compound = "CCC(C)OC(=O)C(O)C(O)C(=O)OC(C)CC (racemic) [Example 4, Di-sec-butyl-DL-tartrate]"
reported = 35.1

[[record]]
compound = "CCC(C)COC(=O)C(O)C(O)C(=O)OCC(C)CC (racemic) [Example 7, Di(2-methyl-butyl)-DL-tartrate]"
reported = 35.6

[[record]]
compound = "CC(C)(C)COC(=O)C(O)C(O)C(=O)OCC(C)(C)C (racemic) [Example 8, Dineopentyl-DL-tartrate]"
reported = 35.1


P = CC(C)COC(=O)C(O)C(O)C(=O)OCC(C)C (racemic) [Example 3, Diisobutyl-DL-tartrate]
Q = O=C(OCc1ccccc1)C(O)C(O)C(=O)OCc1ccccc1 (racemic) [Example 11, Dibenzyl-DL-tartrate]
Kindly identify the item with the lower limiting γ (0.1 b/s) figure among these two: P and Q Kindly state the label of the option you pick. P
